experiment.notes: E. coli acrAB mutant growth effects, primary screen, E. coli filamentation inducers, strain DRC39, OD650, 24 h (AID 1178);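 also: growth measured as culture turbidity by optical density at 650 nm; test concentration not given here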
protocol.conditions: higher = more signal, called active from +8 up or from −8 down
Cut-off 1 on z-score, inclusive. At or above means yes (1); below means no (0).

Solved cases below.
compound: CC(C)CNC(=O)[C@@H]1c2ccccc2C(=O)N(Cc2ccc(OC(F)(F)F)cc2)[C@H]1c1ccc(CO)cc1
label.value: yes (1)

compound: CC(C)N1C(=O)c2ccccc2[C@@H](C(=O)NCc2ccccc2)[C@@H]1c1ccc(CO)cc1
label.value: no (0)

compound: C=C1C=C(Br)C2(OCCCO2)[C@H]2OC12 (stereo not given in full)
label.value: no (0)

compound: C=C(COC)/C(=C/C[C@H](OC(C)=O)c1cccc(OCCO)c1)c1cc(C(=O)OC)ccc1OC
label.value: yes (1)

Here is another compound to look at.
Form field: z-score at least 1? Entry: C#CCOc1ccc(C[C@H]2C(=O)O[C@H](Cc3ccccc3)[C@H](/C=C/C3CC3)N2CC#C)cc1
yes (1)

* * *

experiment.notes: basal HepG2 mitochondrial membrane potential changes, profiling panel, cell-based, JC-1 fluorescence, 24 h, 100 nL compound (AID 1167); also: test concentration not given here
protocol.conditions: higher = more signal
Attribute: z-score
API doc: respond with a numeric literal and nothing else, no unit.

Here are 6 compounds together with their reported answers.
compound: NC(=O)NCC#Cc1ccc2c(c1)[C@]1(C(=O)N2)[C@H](c2ccc(OCCO)cc2)N2[C@H](c3ccccc3)[C@H](c3ccccc3)OC(=O)[C@H]2[C@@H]1C(=O)Nc1nc2ccccc2s1
outcome.measure: z-score
endpoint.result: -3.12

compound: CCCCCN1CC=CC23O[C@@H]4/C=C\CCC(C)OC(=O)C4[C@H]2C(=O)N(CCCO)[C@@H]3C1=O (stereo not given in full)
outcome.measure: z-score
endpoint.result: 0.197

compound: COCCCN1C(=O)[C@@]2(Cc3ccccc31)c1ccccc1C(=O)N(Cc1ccccc1Cl)[C@H]2c1ccc(CO)cc1
outcome.measure: z-score
endpoint.result: 1.58

compound: COc1ccc([Si](C)(C)[C@@H]2[C@@H](CC(=O)N3CCC[C@H]3CO)O[C@]3(C(=O)N(Cc4ccc(N5CCC5=O)cc4)c4ccccc43)[C@H]2C)cc1
outcome.measure: z-score
endpoint.result: -1.56

compound: C=CCC(OC(C)=O)[C@@H]1[C@@H](N(Cc2cccc3ccccc23)C(=O)c2cccc3ccccc23)c2cc(OCCCO)ccc2N1C(=O)Cc1ccc(OC)cc1 (stereo not given in full)
outcome.measure: z-score
endpoint.result: 3.07

compound: CC(=O)NCCCC[C@@H]1NC(=O)[C@@H]2C[C@H](C(=O)O)[C@H](c3cccc(OCCO)c3)N2C1=O
outcome.measure: z-score
endpoint.result: 1.31

Would you kindly share the measured z-score for CCCNC(=O)[C@@]1(Sc2ccc(C)cc2)CC(=O)N(Cc2cc(C(F)(F)F)cc(C(F)(F)F)c2)[C@@H]1c1ccc(CO)cc1I ?
0.848

Record: [N-]=[N+]=NCc1ccccc1C[C@@]1(C(=O)O)N=C(c2ccc(OCCCO)cc2)O[C@@H]1c1ccccc1
-0.586

Record: C#CCN1C(C(=O)OCC)OC[C@H]1c1ccccc1 (stereo not given in full)
1.06

Record: CC(C)(C)OC(=O)CC[C@@]1(C(=O)N2CCOCC2)N=C(c2ccc(OCCCO)cc2)O[C@@H]1c1ccccc1
0.652

Record: O=C(O)[C@H]1C[C@H]2C(=O)NCC(=O)N2[C@H]1c1cccc(OCCO)c1
1.27

Record: O=C(O)[C@H]1C[C@H]2C(=O)N[C@@H](Cc3ccccc3)C(=O)N2[C@H]1c1ccc(O)cc1
1.29

Record: CCCC[C@@H](O)C1=C(C)C[C@H]2C(=O)N(C)C(=O)[C@H]2[C@H]1CO
1.2

Record: C=CCN1C(=O)[C@@]2(O[C@@H](CCO)[C@H]([Si](C)(C)c3ccc(OC)cc3)[C@H]2C)c2cc(N3C(=O)c4cccc5cccc3c45)ccc21
-2.34

Record: C[N+](C)(C)CCCC[C@@H]1NC(=O)[C@H]2C[C@@H](C(=O)NCCCCCN)[C@@H](c3cccc(OCCO)c3)N2C1=O
1.31
